Origin of the recorded values: PubChem BioAssay

Test system: XIP peptide (Xip251-270) binding
procedure.text: small-molecule binders of XIP peptide, primary screen, biochemical, small-molecule microarray, fluorescence 635/667 nm, 0.1 µg/mL protein (AID 1182)
settings: fluorescent protein binding, 635 nm, higher = more signal, called active from +8 up or from −8 down
quantity: composite z-score

- O=C(O)[C@@]1(Cc2ccccc2)N=C(c2ccc(OCCCO)cc2)O[C@H]1c1ccccc1: 0.213
- CC(C)N1C(=O)C[C@@](C(=O)NCc2ccccc2)(c2ccc([N+](=O)[O-])cc2)[C@H]1c1ccc(CO)cc1: 0.168
- [N-]=[N+]=NCc1ccccc1C[C@]1(C(=O)O)N=C(c2ccc(OCCCO)cc2)O[C@H]1c1ccccc1CN=[N+]=[N-]: 0.218
- O=C(CS)NCCCCCCNC(=O)[C@H]1C[C@H]2C(=O)NCC(=O)N2[C@H]1c1ccc(O)cc1: 0.545
